Numbers sourced from patent US20230100838A1.

target-entity: GDP-loaded K-Ras (1-169) C51S, C80L, C118S (Homo sapiens, UniProt P01116, C118S/C51S/C80L)
Construct: GDP-loaded K-Ras (1-169) C51S, C80L, C118S
measurement-notes: K-Ras WT (GDP) cross-linking assay (conjugate formation, TOF mass spectrometry)
Format: binding
stated-conditions: Table 5; percent covalently modified K-Ras by MS; room temperature; typical compound conc. 2, 10, 25 μM, endpoints 1 and 24 h
quantity-kind: WT x-linking (%)

{"molecule": "Cc1cccc2cccc(N3CCc4c(nc(OC[C@@H]5CCCN5C)nc4N4CC[C@H](NC(=O)[C@H]5CN5)[C@@H](CC#N)C4)C3)c12 [Example 126]", "target-entity": "GDP-loaded K-Ras (1-169) C51S, C80L, C118S (Homo sapiens, UniProt P01116, C118S/C51S/C80L)", "quantity-kind": "WT x-linking (%)", "result": "+ (0 < x ≤ 20)"}
{"molecule": "Cc1ccc2[nH]ncc2c1-c1cc2ncnc3c2c(c1Cl)OCC[C@@H]1CN(C(=O)[C@@H]2CN2)CCN31 [Example 123]", "target-entity": "GDP-loaded K-Ras (1-169) C51S, C80L, C118S (Homo sapiens, UniProt P01116, C118S/C51S/C80L)", "quantity-kind": "WT x-linking (%)", "result": 0}
{"molecule": "Cc1ccnc(C(C)C)c1-n1c(=O)nc(N2CCC(CN=C=NCc3ccccc3)CC2)c2cc(F)c(-c3ccccc3F)nc21 [Example 69]", "target-entity": "GDP-loaded K-Ras (1-169) C51S, C80L, C118S (Homo sapiens, UniProt P01116, C118S/C51S/C80L)", "quantity-kind": "WT x-linking (%)", "result": "+ (0 < x ≤ 20)"}
{"molecule": "C#CCCN1CCC[C@H]1COc1nc2c(c(N3CCN(C(=O)[C@@H]4CN4)[C@@H](CC#N)C3)n1)CCN(c1cccc3cccc(C)c13)C2 [Example 117]", "target-entity": "GDP-loaded K-Ras (1-169) C51S, C80L, C118S (Homo sapiens, UniProt P01116, C118S/C51S/C80L)", "quantity-kind": "WT x-linking (%)", "result": 0}
{"molecule": "Cc1cccc2cccc(N3CCc4c(nc(OC[C@@H]5CCCN5C)nc4N4CC[C@@H](NC(=O)[C@@H]5CN5)[C@@H](CC#N)C4)C3)c12 [Example 128]", "target-entity": "GDP-loaded K-Ras (1-169) C51S, C80L, C118S (Homo sapiens, UniProt P01116, C118S/C51S/C80L)", "quantity-kind": "WT x-linking (%)", "result": "+ (0 < x ≤ 20)"}
{"molecule": "Cc1cccc2cccc(N3CCc4c(nc(OC[C@@H]5CCCN5C)nc4N4CCN(C[C@H]5CN5)[C@@H](CC#N)C4)C3)c12 [Example 100]", "target-entity": "GDP-loaded K-Ras (1-169) C51S, C80L, C118S (Homo sapiens, UniProt P01116, C118S/C51S/C80L)", "quantity-kind": "WT x-linking (%)", "result": "+ (0 < x ≤ 20)"}

* * *

target-entity: GDP-loaded K-Ras (1-169) C51S, C80L, C118S (Homo sapiens, UniProt P01116, C118S/C51S/C80L)
Construct: GDP-loaded K-Ras (1-169) C51S, C80L, C118S
measurement-notes: K-Ras WT (GDP) cross-linking assay (conjugate formation, TOF mass spectrometry)
Format: binding
stated-conditions: Table 4; percent covalently modified K-Ras by MS; room temperature; typical compound conc. 2, 10, 25 μM, endpoints 1 and 24 h
quantity-kind: WT x-linking (%)

{"molecule": "O=C(NCCCl)NC1CCN(c2ncnc3c(F)c(-c4ccccc4F)c(Cl)cc23)CC1", "target-entity": "GDP-loaded K-Ras (1-169) C51S, C80L, C118S (Homo sapiens, UniProt P01116, C118S/C51S/C80L)", "quantity-kind": "WT x-linking (%)", "result": "+ (0 < x ≤ 20)"}
{"molecule": "Cc1cccc2cccc(N3CCc4c(nc(OC[C@@H]5CCCN5C)nc4N4CCN(C(=O)NCCCl)[C@@H](CC#N)C4)C3)c12", "target-entity": "GDP-loaded K-Ras (1-169) C51S, C80L, C118S (Homo sapiens, UniProt P01116, C118S/C51S/C80L)", "quantity-kind": "WT x-linking (%)", "result": "+ (0 < x ≤ 20)"}
{"molecule": "CCCN=C=NC1CCN(c2nc(OC[C@@H]3CCCN3C)nc3c2CCN(c2cccc4cccc(C)c24)C3)CC1", "target-entity": "GDP-loaded K-Ras (1-169) C51S, C80L, C118S (Homo sapiens, UniProt P01116, C118S/C51S/C80L)", "quantity-kind": "WT x-linking (%)", "result": "++ (20 < x ≤ 100)"}
{"molecule": "Cc1cccc2cccc(N3CCc4c(nc(OC[C@@H]5CCCN5C)nc4N(C)CCCN=C=NCc4ccccc4)C3)c12", "target-entity": "GDP-loaded K-Ras (1-169) C51S, C80L, C118S (Homo sapiens, UniProt P01116, C118S/C51S/C80L)", "quantity-kind": "WT x-linking (%)", "result": "++ (20 < x ≤ 100)"}
{"molecule": "CN(CCN=C=Nc1ccccc1)c1ncnc2c(F)c(-c3ccccc3F)c(Cl)cc12", "target-entity": "GDP-loaded K-Ras (1-169) C51S, C80L, C118S (Homo sapiens, UniProt P01116, C118S/C51S/C80L)", "quantity-kind": "WT x-linking (%)", "result": "+ (0 < x ≤ 20)"}
{"molecule": "Cc1cccc2cccc(N3CCc4c(nc(OC[C@@H]5CCCN5C)nc4N4CCC(B(O)O)CC4)C3)c12", "target-entity": "GDP-loaded K-Ras (1-169) C51S, C80L, C118S (Homo sapiens, UniProt P01116, C118S/C51S/C80L)", "quantity-kind": "WT x-linking (%)", "result": "+ (0 < x ≤ 20)"}
{"molecule": "CCCN=C=NC1CCN(c2nc(=O)n(-c3c(C)ccnc3C(C)C)c3nc(-c4ccccc4F)c(F)cc23)CC1", "target-entity": "GDP-loaded K-Ras (1-169) C51S, C80L, C118S (Homo sapiens, UniProt P01116, C118S/C51S/C80L)", "quantity-kind": "WT x-linking (%)", "result": "+ (0 < x ≤ 20)"}
{"molecule": "Cc1cccc2cccc(N3CCc4c(nc(OC[C@@H]5CCCN5C)nc4N4CCN(C(=O)C5CN5)CC4)C3)c12 (stereo partly drawn)", "target-entity": "GDP-loaded K-Ras (1-169) C51S, C80L, C118S (Homo sapiens, UniProt P01116, C118S/C51S/C80L)", "quantity-kind": "WT x-linking (%)", "result": "+ (0 < x ≤ 20)"}
{"molecule": "Cc1cccc2cccc(N3CCc4c(nc(OC[C@@H]5CCCN5C)nc4N4CCC(N(C)C(=O)C5CN5C)CC4)C3)c12 (stereo partly drawn)", "target-entity": "GDP-loaded K-Ras (1-169) C51S, C80L, C118S (Homo sapiens, UniProt P01116, C118S/C51S/C80L)", "quantity-kind": "WT x-linking (%)", "result": "+ (0 < x ≤ 20)"}
